B1: Storkhead-box protein 2, residues 64 to 141; numbered along this chain, Q9P2F5 (parent)
chain: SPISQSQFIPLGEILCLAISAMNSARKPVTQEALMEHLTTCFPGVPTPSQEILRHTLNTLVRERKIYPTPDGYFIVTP

Variants of: B1
experimental details: abundance fitness (aPCA) (normalised: wild type 0, dead -1); higher = more abundant; growth selection in yeast, the domain comes from the species named
stated conditions: Homo sapiens
measurement kind: abundance fitness
One number for each entry.

Please review the entries below; each comes with its answer.
biopolymer sequence | measurement kind | observed measurement
SPISQSQFIPLGEILCLAISAMNSARKPVTQEALMEHLTTCFPGVPTPSQCILRHTLNTLVRERKIYPTPDGYFIVTP | abundance fitness | -0.104
SPISQSQFIPLGEILCLAISAMNSARKPVTQEWLMEHLTTCFPGVPTPSQEILRHTLNTLVRERKIYPTPDGYFIVTP | abundance fitness | -0.279
SPISQSQFIPLGEILCLAISAMNSARKPVTQEALMEHLTTCFPGVPTPSQEILRHTLRTLVRERKIYPTPDGYFIVTP | abundance fitness | -0.016
SPISQSQFIPLGEILCLAISAMNSARKPVTQEALIEHLTTCFPGVPTPSQEILRHTLNTLVRERKIYPTPDGYFIVTP | abundance fitness | 0.044
SPISQSQFIPLGEILCLAISAMNSARKPVTQEALMEHLTTCFPGVPTPSQEILRHTMNTLVRERKIYPTPDGYFIVTP | abundance fitness | -0.066
SPISQSQFIPLGEILCLAISAMNSARKPVTQEALMEHFTTCFPGVPTPSQEILRHTLNTLVRERKIYPTPDGYFIVTP | abundance fitness | 0.014

List abundance fitness for every entry below, keeping the order given.
1. SPISQSQFIPLGEILCLAISAMNSSRKPVTQEALMEHLTTCFPGVPTPSQEILRHTLNTLVRERKIYPTPDGYFIVTP
2. SPISISQFIPLGEILCLAISAMNSARKPVTQEALMEHLTTCFPGVPTPSQEILRHTLNTLVRERKIYPTPDGYFIVTP
3. SPISQSQFIPLGEILCLAISAMNSARKPVTQEALMEHLTTCFPGVPTPSQEILRDTLNTLVRERKIYPTPDGYFIVTP
4. SPISQSQFIPLGEILCLAISAMNSPRKPVTQEALMEHLTTCFPGVPTPSQEILRHTLNTLVRERKIYPTPDGYFIVTP
5. SPISQSQFIPLGEILCLAISAMNSARKPVTQEALMEHLTTCFPGVPTPSQEILRHTLNTLVREMKIYPTPDGYFIVTP

[A]
1: -0.055; 2: -0.052; 3: 0.07; 4: -0.368; 5: -0.138
